- system_under_test: Retinoic acid receptor beta (Homo sapiens, UniProt P10826)
- Sequence (P10826 whole entry): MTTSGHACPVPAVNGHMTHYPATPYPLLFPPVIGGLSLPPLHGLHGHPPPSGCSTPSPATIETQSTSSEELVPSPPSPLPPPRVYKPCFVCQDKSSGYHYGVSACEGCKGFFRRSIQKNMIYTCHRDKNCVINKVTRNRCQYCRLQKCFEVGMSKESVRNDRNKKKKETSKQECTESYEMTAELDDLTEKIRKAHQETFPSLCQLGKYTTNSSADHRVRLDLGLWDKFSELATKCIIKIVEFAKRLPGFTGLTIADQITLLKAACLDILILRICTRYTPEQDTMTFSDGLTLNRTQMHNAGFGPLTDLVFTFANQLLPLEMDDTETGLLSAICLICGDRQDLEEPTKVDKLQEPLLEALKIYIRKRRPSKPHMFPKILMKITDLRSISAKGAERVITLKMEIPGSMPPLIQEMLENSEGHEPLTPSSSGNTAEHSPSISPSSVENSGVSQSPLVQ
pKd: −log10 of the molar value.
assay_metric: pKd

molecule: CC(=CC(=O)O)/C=C/C1CC1(C)c1cc2c(cc1C)C(C)(C)CCC2(C)C (configuration not stated)
pKd: < 6.00

Kindly consider the entry below.
[in] Return reported pKd; argument: CC(/C=C/C1CC1(C)c1cc2c(cc1C)C(C)(C)CCC2(C)C)=C\C(=O)O (configuration not stated)
[out] < 6.00

* * *

- system_under_test: Retinoic acid receptor RXR-gamma (Homo sapiens)
- Sequence (P48443 whole entry): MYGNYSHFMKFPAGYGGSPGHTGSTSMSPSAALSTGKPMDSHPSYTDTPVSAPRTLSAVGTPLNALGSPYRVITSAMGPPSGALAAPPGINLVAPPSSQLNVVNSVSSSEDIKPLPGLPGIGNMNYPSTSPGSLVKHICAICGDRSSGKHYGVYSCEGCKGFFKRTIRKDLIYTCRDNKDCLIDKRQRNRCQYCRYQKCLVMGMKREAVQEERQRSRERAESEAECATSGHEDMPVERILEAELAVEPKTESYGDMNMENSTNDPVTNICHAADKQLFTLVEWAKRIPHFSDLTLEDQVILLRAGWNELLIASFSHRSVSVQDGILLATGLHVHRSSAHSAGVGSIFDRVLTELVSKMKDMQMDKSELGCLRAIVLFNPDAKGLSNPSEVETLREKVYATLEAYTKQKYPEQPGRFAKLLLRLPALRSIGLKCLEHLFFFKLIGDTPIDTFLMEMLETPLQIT
- assay: Compound was tested for functional activity in CV-1 cells transfected with an expression vector for retinoid X receptor gamma using transactivation assay
assay_metric: pEC50
pEC50 here: minus log base 10 of the concentration, concentration in moles per litre.

[in] For Retinoic acid receptor RXR-gamma (Homo sapiens), provide pEC50 of CC(/C=C/C1CC1(C)c1cc2c(cc1C)C(C)(C)CCC2(C)C)=C\C(=O)O (configuration not stated) please.
[out] 7.15

* * *

pEC50 for assorted compounds
- system_under_test: Retinoic acid receptor beta (Homo sapiens, UniProt P10826)
- Sequence (P10826 whole entry): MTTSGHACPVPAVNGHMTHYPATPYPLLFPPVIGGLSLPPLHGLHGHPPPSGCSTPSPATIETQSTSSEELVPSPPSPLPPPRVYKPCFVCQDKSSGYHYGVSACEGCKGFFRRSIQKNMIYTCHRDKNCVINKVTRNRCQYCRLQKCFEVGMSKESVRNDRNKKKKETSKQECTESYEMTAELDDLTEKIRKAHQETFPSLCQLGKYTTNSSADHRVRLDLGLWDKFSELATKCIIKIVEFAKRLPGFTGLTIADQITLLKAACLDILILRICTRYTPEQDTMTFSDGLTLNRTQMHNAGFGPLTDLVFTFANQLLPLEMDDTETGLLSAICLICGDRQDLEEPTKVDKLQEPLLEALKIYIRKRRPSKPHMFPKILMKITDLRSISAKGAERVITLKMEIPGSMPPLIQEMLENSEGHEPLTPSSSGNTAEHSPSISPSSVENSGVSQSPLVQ
- assay: Compound was tested for functional activity in CV-1 cells transfected with an expression vector for retinoic acid receptor beta using transactivation assay
pEC50: −log10 of the molar value.

compound: CC(=CC(=O)O)/C=C/C1CC1(C)c1cc2c(cc1C)C(C)(C)CCC2(C)C (configuration not stated)
endpoint_value: < 6.00

Kindly consider the entry below.
[in] Return reported pEC50; argument: CC(/C=C/C1CC1(C)c1cc2c(cc1C)C(C)(C)CCC2(C)C)=C\C(=O)O (configuration not stated)
[out] < 6.00
